Assay: Single dose pharmacokinetic study in cynomolgus monkey
Format: in vivo
Conditions: male, cynomolgus monkey, plasma, po, 5 mg/kg, non-human primate, po 5 mg/kg, 0.5 hr; read-out: Plasma level, Mean
OBSERVED PROPERTY: concentration at 0.5 h (ng/mL)
Numbers only, in ng/mL.

Exercise: Quick one: concentration at 0.5 h of `Cc1cc(C(=O)O)nc(N2C[C@H]3C[C@@H](c4ccccc4C(F)(F)F)C[C@H]3C2)n1` ?
Key: 22200

---

Experiment: Single dose pharmacokinetic study in cynomolgus monkey
Format: in vivo
Conditions: male, cynomolgus monkey, plasma, iv, 1 mg/kg, non-human primate, iv 1.0 mg/kg, 36 hr; read-out: Plasma level, Mean
OBSERVED PROPERTY: concentration at 36 hr (ng/mL)
Answers are plain numbers, in ng/mL.

Exercise: Could you share which concentration at 36 hr value was measured for Cc1cc(C(=O)O)nc(N2C[C@H]3C[C@@H](c4ccccc4C(F)(F)F)C[C@H]3C2)n1 [BPN-14136] ?
Key: 1670
